log10 CC50 reference
- testMethodNotes: in vitro
- conditionSummary: human
readoutName: log10 CC50 (log10 of the value in nM)

{"compound": "C/C=C/[C@H]1O[C@@H]([C@@H](C)[C@H](O)[C@H](C)[C@H]2OC(=O)/C(OC)=C/C(C)=C/[C@@H](C)[C@@H](O)[C@@H](CC)[C@@H](O)[C@H](C)C/C(C)=C/C=C/[C@@H]2OC)C[C@@H](O[C@@H]2C[C@H](O)[C@@H](O)[C@H](C)O2)[C@@H]1C", "endpointResult": 0.30}
{"compound": "C/C=C/[C@H]1O[C@@](O)([C@@H](C)[C@H](O)[C@H](C)[C@H]2OC(=O)/C(OC)=C/C(C)=C/[C@@H](C)[C@@H](O)[C@@H](CC)[C@@H](OC(C)=O)[C@H](C)C/C(C)=C/C=C/[C@@H]2OC)C[C@@H](O[C@@H]2C[C@H](OC(C)=O)[C@@H](OC(N)=O)[C@H](C)O2)[C@@H]1C", "endpointResult": 0.59}
{"compound": "CO/C1=C\\C(C)=C\\[C@@H](C)[C@@H](OC(C)=O)[C@@H](C)C/C(C)=C/C=C/[C@H](OC)[C@@H]([C@@H](C)[C@@H](O)[C@H](C)[C@@]2(O)C[C@@H](OC(C)=O)[C@H](C)C(C(C)C)O2)OC1=O (some centres unmarked)", "endpointResult": 2.64}
{"compound": "C=C/C=C/C(=O)O[C@@H]1C[C@](O)([C@@H](C)[C@H](O)[C@H](C)[C@H]2OC(=O)/C(OC)=C/C(C)=C/[C@@H](C)[C@@H](O)[C@@H](C)C/C(C)=C/C=C/[C@@H]2OC)O[C@H](C(C)C)[C@H]1C", "endpointResult": 1.34}
{"compound": "CO/C1=C\\C(C)=C\\[C@@H](C)[C@@H](O)[C@@H](C)C/C(C)=C/C=C/[C@H](OC)[C@@H]([C@@H](C)[C@@H](O)[C@H](C)[C@@]2(O)C[C@@H](OC(C)=O)[C@H](C)C(C(C)C)O2)OC1=O (some centres unmarked)", "endpointResult": 1.00}
{"compound": "C#CCCC(=O)O[C@@H]1C[C@H]([C@@H](C)[C@H](O)[C@H](C)[C@H]2OC(=O)/C(OC)=C/C(C)=C/[C@@H](C)[C@@H](O)[C@@H](C)C/C(C)=C/C=C/[C@@H]2OC)O[C@H](C(C)C)[C@H]1C", "endpointResult": 1.56}
{"compound": "CCCCCCCCC(=O)O[C@@H]1C[C@](O)([C@@H](C)[C@H](O)[C@H](C)[C@H]2OC(=O)/C(OC)=C/C(C)=C/[C@@H](C)[C@@H](O)[C@@H](C)C/C(C)=C/C=C/[C@@H]2OC)O[C@H](C(C)C)[C@H]1C", "endpointResult": 2.15}
{"compound": "C/C=C/CC(=O)O[C@@H]1C[C@](O)([C@@H](C)[C@H](O)[C@H](C)[C@H]2OC(=O)/C(OC)=C/C(C)=C/[C@@H](C)[C@@H](O)[C@@H](C)C/C(C)=C/C=C/[C@@H]2OC)OC(C(C)C)[C@H]1C (some centres unmarked)", "endpointResult": 1.59}

###

Reported Viability:Nef (therapeutic window separating Nef IC50 and TC50) values for the following molecules.
- System: primary CD4+ T cells
- testMethodNotes: in vitro
- conditionSummary: ratio TC50 to Nef IC50
readoutName: Viability:Nef (therapeutic window separating Nef IC50 and TC50) (fold)

{"molecule": "C/C=C/[C@H]1O[C@@](O)([C@@H](C)[C@H](O)[C@H](C)[C@H]2OC(=O)/C(OC)=C/C(C)=C/[C@@H](C)[C@@H](O)[C@@H](C)[C@@H](OC(C)=O)[C@H](C)C/C(C)=C/C=C/[C@@H]2OC)C[C@@H](O[C@@H]2C[C@H](OC(C)=O)[C@@H](OC(N)=O)[C@H](C)O2)[C@@H]1C", "unitsOfMeasure": "fold", "endpointResult": 8.8}
{"molecule": "COC1=CC(C)=CC(C)C(O)C(C)CC(C)=CC=CC(OC)C(C(C)C(O)C(C)C2(O)CC(OC3OC(C)C(O)C(O)C3OC)C(C)C(C(C)C)O2)OC1=O (stereo not shown) [Compound S14, Leucanicidin, reference compound]", "unitsOfMeasure": "fold", "endpointResult": 1.3}
{"molecule": "CO/C1=C\\C(C)=C\\[C@@H](C)[C@@H](OC(C)=O)[C@@H](C)C/C(C)=C/C=C/[C@H](OC)[C@@H]([C@@H](C)[C@@H](O)[C@H](C)[C@@]2(O)C[C@@H](OC(C)=O)[C@H](C)C(C(C)C)O2)OC1=O (stereo partly shown)", "unitsOfMeasure": "fold", "endpointResult": 1.8}
{"molecule": "C/C=C/[C@H]1O[C@@](O)([C@@H](C)[C@H](O)[C@H](C)[C@H]2OC(=O)/C(OC)=C/C(C)=C/[C@@H](C)[C@@H](O)[C@@H](CC)[C@@H](OC(C)=O)[C@H](C)C/C(C)=C/C=C/[C@@H]2OC)C[C@@H](O[C@@H]2C[C@H](OC(C)=O)[C@@H](OC(C)=O)[C@H](C)O2)[C@@H]1C", "unitsOfMeasure": "fold", "endpointResult": 1.8}

###

- testMethodNotes: in vitro
- conditionSummary: human, mock-infected primary CD4+ T cells

{"compound": "C[C@@H]1C[C@H](C)C[C@H](C)[C@@H](O)CC(=O)O[C@H]([C@@H]2CCC[C@H]2C(=O)O)C/C=C/C=C(/C#N)[C@H](O)[C@@H](C)C1 [Compound S2, Borrelidin, reference compound]", "CC50 at 72 h": "91 nM"}

###

- Tested on: primary CD4+ T cells
- testMethodNotes: in vitro
- conditionSummary: read-out: Viability (TC50); mock primary CD4+ T cells, 72 hours after treatment
- Procedure: Inhibition of HIV-Nef was measured by assessing its capacity to downmodulate MHC-I HLA-A2 on the surface of primary CD4+ T cells 24-hours after treatment with each compound. V-ATPase inhibition was assessed at the same time point using lysosomal acidification as an indicator of V-ATPase activity. This was measured using a flow cytometric assay that quantified Lysotracker mean fluorescence intensity as previously described (Painter et al., 2020). […]
Property: CC50; scope: individual molecules

{"molecule": "C/C=C/[C@H]1O[C@@](O)([C@@H](C)[C@H](O)[C@H](C)[C@H]2OC(=O)/C(OC)=C/C(C)=C/[C@@H](C)[C@@H](O)[C@@H](CC)[C@@H](O)[C@H](C)C/C(C)=C/C=C/[C@@H]2OC)C[C@@H](O[C@H]2C[C@@H](O)[C@H](O)[C@@H](C)O2)[C@@H]1C [Compound 5, concanamycin C, reference compound]", "measuredTarget": "primary CD4+ T cells", "CC50": "1.3 nM"}
{"molecule": "C/C=C/[C@H]1O[C@@H]([C@@H](C)[C@H](O)[C@H](C)[C@H]2OC(=O)/C(OC)=C/C(C)=C/[C@@H](C)[C@@H](O)[C@@H](CC)[C@@H](O)[C@H](C)C/C(C)=C/C=C/[C@@H]2O)C[C@@H](O)[C@@H]1C [Compound S25, 21-Deoxy-16-Hydroxy CMF]", "measuredTarget": "primary CD4+ T cells", "CC50": "> 1000 nM"}
{"molecule": "CC[C@H]1OC(=O)[C@H](C)[C@@H](O)[C@H](C)[C@@H](O)[C@@H](C)C[C@@H](C)C(=O)[C@H](C)[C@@H](O)[C@H]1C [Compound S31, 6-deoxyerythronolide B, reference compound]", "measuredTarget": "primary CD4+ T cells", "CC50": "> 1000 nM"}

###

- testMethodNotes: in vitro
- conditionSummary: human
readoutName: log10 CC50 (log10 of the value in nM)

{"molecule": "C/C=C/[C@H]1O[C@@](O)([C@@H](C)[C@H](O)[C@H](C)[C@H]2OC(=O)/C(OC)=C/C(C)=C/[C@@H](C)[C@@H](O)[C@@H](C)[C@@H](O)[C@H](C)C/C(C)=C/C=C/[C@@H]2OC)C[C@@H](O)[C@@H]1C", "endpointResult": 1.15}
{"molecule": "C/C=C/[C@H]1O[C@@](O)([C@@H](C)[C@H](O)[C@H](C)[C@H]2OC(=O)/C(OC)=C/C(C)=C/[C@@H](C)[C@@H](O)[C@@H](CC)[C@@H](O)[C@H](C)C/C(C)=C/C=C/[C@@H]2OC)C[C@@H](OC(C)=O)[C@@H]1C", "endpointResult": 0.79}
{"molecule": "C/C=C/[C@H]1O[C@@](O)([C@@H](C)[C@H](O)[C@H](C)[C@H]2OC(=O)/C(OC)=C/C(C)=C/[C@@H](C)[C@@H](O)[C@@H](CC)[C@@H](O)[C@H](C)C/C(C)=C/C=C/[C@@H]2OC)C[C@@H](O[C@@H]2C[C@H](OC(=O)CCCC)[C@@H](OC(N)=O)[C@H](C)O2)[C@@H]1C [Compound 8, 3-pentanoate Concanamycin A]", "endpointResult": 0.54}
{"molecule": "CO/C1=C\\C(C)=C\\[C@@H](C)[C@@H](O)[C@@H](C)C/C(C)=C/C=C/[C@H](OC)[C@@H]([C@@H](C)[C@@H](O)[C@H](C)[C@@]2(O)C[C@@H](OC(=O)c3ccccc3)[C@H](C)[C@@H](C(C)C)O2)OC1=O", "endpointResult": 2.11}
{"molecule": "C/C=C/[C@H]1O[C@@](O)([C@@H](C)[C@H](O)[C@H](C)[C@H]2OC(=O)/C(OC)=C/C(C)=C/[C@@H](C)[C@@H](O)[C@@H](CC)[C@@H](O)[C@H](C)C/C(C)=C/C=C/[C@@H]2OC)C[C@@H](O)[C@@H]1C", "endpointResult": 0.46}
{"molecule": "CO/C1=C\\C(C)=C\\[C@@H](C)[C@@H](O)[C@@H](C)C/C(C)=C/C=C/[C@H](OC)[C@@H]([C@@H](C)[C@@H](O)[C@H](C)[C@@]2(O)C[C@@H](OC=O)[C@H](C)[C@@H](C(C)C)O2)OC1=O", "endpointResult": 0.86}
{"molecule": "CO/C1=C\\C(C)=C\\[C@@H](C)[C@@H](O)[C@@H](C)C/C(C)=C/C=C/[C@H](OC)[C@@H]([C@@H](C)[C@@H](O)[C@H](C)[C@H]2C[C@@H](OC)[C@H](C)[C@@H](C(C)C)O2)OC1=O", "endpointResult": 1.45}
